Reference source for all entries: PubChem BioAssay AID1963833

# Tested on: 883617-216-R-J1-PDC complex spheroid viability
# methodNotes: Anticancer human tumor 883617-216-R-J1-PDC patient-derived bladder carcinoma cell line growth inhibition [POLQ]
# conditionInfo: second compound 3.16 µM; first compound 0.316 µM; hits give low values
Give viability, T/C for every item shown.
Answers are plain numbers, in %.

[[record]]
molecule = "CC1COCCN1c1cc(-c2ccnn2C)c2ccnc(-c3ccn[nH]3)c2n1 (centres undefined) + Cc1cccc(N(C)C(=O)C2C(O)CCN2c2nc(C)cc(C(F)(F)F)c2C#N)c1"
targetofassay = "883617-216-R-J1-PDC complex spheroid viability"
numericresult = 43.9

[[record]]
molecule = "O=C(c1cc(Cc2n[nH]c(=O)c3ccccc23)ccc1F)N1CCN(C(=O)C2CC2)CC1 + COC1C(OC(N)=O)C(O)C(Oc2ccc3c(O)c(NC(=O)c4ccc(O)c(CC=C(C)C)c4)c(=O)oc3c2C)OC1(C)C"
targetofassay = "883617-216-R-J1-PDC complex spheroid viability"
numericresult = 95.8

[[record]]
molecule = "COc1cc(C2c3cc4c(cc3C(OC3OC5COC(C)OC5C(O)C3O)C3COC(=O)C23)OCO4)cc(OC)c1O (centres undefined) + COC1C(OC(N)=O)C(O)C(Oc2ccc3c(O)c(NC(=O)c4ccc(O)c(CC=C(C)C)c4)c(=O)oc3c2C)OC1(C)C"
targetofassay = "883617-216-R-J1-PDC complex spheroid viability"
numericresult = 72.7


From here, focus on the item given below.
According to the records, this molecule COc1cc2cc(C(=O)CCC(=O)O)sc2cc1OC + COC1C(OC(N)=O)C(O)C(Oc2ccc3c(O)c(NC(=O)c4ccc(O)c(CC=C(C)C)c4)c(=O)oc3c2C)OC1(C)C displays viability, T/C of 90.7

====

# Tested on: 883617-216-R-J1-PDC complex spheroid viability
# methodNotes: Anticancer human tumor 883617-216-R-J1-PDC cell line growth inhibition [POLQ];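 further: spheroids exposed to compounds for seven days before readout; 100% = DMSO vehicle control viability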
# conditionInfo: second compound 10 µM; first compound 0.0316 µM; hits give low values
Give viability, T/C for every item shown.
Numbers only, in %.

Hi there! I need viability, T/C for each item below, if you can.
1. COc1cc(C2c3cc4c(cc3C(OC3OC5COC(C)OC5C(O)C3O)C3COC(=O)C23)OCO4)cc(OC)c1O (centres undefined) + Cc1cccc(N(C)C(=O)C2C(O)CCN2c2nc(C)cc(C(F)(F)F)c2C#N)c1
2. COc1cccc2c1C(=O)c1c(O)c3c(c(O)c1C2=O)CC(O)(C(=O)CO)CC3OC1CC(N)C(O)C(C)O1 (centres undefined) + COC1C(OC(N)=O)C(O)C(Oc2ccc3c(O)c(NC(=O)c4ccc(O)c(CC=C(C)C)c4)c(=O)oc3c2C)OC1(C)C
3. CC1COCCN1c1cc(-c2ccnn2C)c2ccnc(-c3ccn[nH]3)c2n1 (centres undefined) + COC1C(OC(N)=O)C(O)C(Oc2ccc3c(O)c(NC(=O)c4ccc(O)c(CC=C(C)C)c4)c(=O)oc3c2C)OC1(C)C
4. C=CC(=O)N1CCN(c2nc(=O)n(-c3c(C)ccnc3C(C)C)c3nc(-c4c(O)cccc4F)c(F)cc23)C(C)C1 (centres undefined) + Cc1cccc(N(C)C(=O)C2C(O)CCN2c2nc(C)cc(C(F)(F)F)c2C#N)c1

Given back:
1: 96.8; 2: 59.5; 3: 91.1; 4: 78.3
